Values were extracted from patent US7196110B2.

The following are reported IC50 results, target or system c-Abl kinase (Abelson murine leukemia virus, UniProt P00521).
Numbers only, in nM.

{"columns": ["MOLECULE", "VALUE UNITS", "IC50"],
 "data": [
  ["COc1cc2c(cc1OCC(O)CN1CCCC1)Cc1c-2n[nH]c1Nc1ccc(F)c(Cl)c1 (stereo not shown) [Compound 280]", "nM", 363],
  ["COc1cc2c(cc1OCC(O)CN1CCCC1)Cc1c-2n[nH]c1NCc1c(F)cccc1F (stereo not shown) [Compound 391]", "nM", 14],
  ["OCC(O)COc1cccc2c1Cc1c-2n[nH]c1Nc1cccc(Br)c1 (stereo not shown) [Compound 468]", "nM", 603]
]}

[ask] Entry COc1cc2c(cc1OCCCO)Cc1c-2n[nH]c1NCc1c(F)cccc1F [Compound 449] : reported IC50 = ?
[reply] 23
